experiment: CCTE_Mundy_HCI_Cortical_Synap_Neur_Matur_NeuriteSpotCountPerNeuriteLength: CCTE's Synaptogenesis and Neurite Maturation Assay in rat cortical cells for Neurite Spot Count per Neurite Length, Mundy Lab (AID 2284210)
Activity calls are given as the source filed them. How the source made its calls: active means hit-call score of the fitted dose curve at least 0.9, where 1 is the maximum; inactive means score below 0.9.
Labels: true for active, false for inactive

INSERT INTO measurements (compound, label_class) VALUES
  ('ClC1=C(Cl)C2(Cl)C3C(Cl)C=CC3C1(Cl)C2(Cl)Cl (centres undefined)', 'false'),
  ('CC(C)(C)C(O)(CCc1ccc(Cl)cc1)Cn1cncn1 (centres undefined)', 'false'),
  ('[O-][Cl+]O', 'false'),
  ('CCC[CH2][Sn]([Cl])([CH2]CCC)[CH2]CCC', 'true'),
  ('Nc1cc(Cl)cc(C(=O)O)c1Cl', 'false'),
  ('COP(=S)(OC)SCN1C(=O)c2ccccc2C1=O', 'false'),
  ('CN(C)[C@@H]1C(=O)C(C(N)=O)=C(O)[C@@]2(O)C(=O)C3=C(O)c4c(O)cccc4[C@@](C)(O)[C@H]3C[C@@H]12', 'false'),
  ('CC(C)COC(=O)c1ccccc1C(=O)OCC(C)C', 'true'),
  ('CCCCOC(=O)c1ccccc1C(=O)OCc1ccccc1', 'false');

----------
assay: Tanguay_ZF_120hpf_MORT_legacy: (Legacy) Oregon State University Tanguay Lab 120 Hour Post-fertilization zebrafish Assay for Mortality (AID 2283633)
The source made the active and inactive calls. How the source made its calls: active means hit-call score of the fitted dose curve at least 0.9, where 1 is the maximum; inconclusive means response in the unintended direction; inactive means score below 0.9.
Labels: label 1 (active), label 0 (inactive)

INSERT INTO results (molecule, label_class) VALUES
  ('CCCSC(=O)N(CCC)CCC', 'label 0'),
  ('CC(C)(C)OOC(=O)c1ccccc1', 'label 0'),
  ('Oc1ccc2ccc3cccc4ccc1c2c34', 'label 1'),
  ('CCCCCOC(=O)c1ccccc1C(=O)OCCCCC', 'label 0'),
  ('CCC(C)c1ccc(O)cc1 (centres undefined)', 'label 0'),
  ('Cc1ccc(N=C=O)cc1N=C=O', 'label 0'),
  ('CCC12COCN1COC2', 'label 0'),
  ('O=P(OCCCl)(OCCCl)OCCCl', 'label 0'),
  ('N#CC(Br)(Br)C(N)=O', 'label 0'),
  ('O=C(N[C@H](c1ccccc1)[C@@H]1CN2CCC1CC2)c1c(Cl)ccc(C(F)(F)F)c1Cl', 'label 1'),
  ('N#CC(Br)Br', 'label 0'),
  ('c1ccc(NNc2ccccc2)cc1', 'label 0'),
  ('Nc1ccc(Oc2ccc(N)cc2)cc1', 'label 0'),
  ('CC(C)(O)c1cnn2c(-c3ccc(F)c(-c4c(F)cccc4C#N)c3)cnc2n1', 'label 0');

----------
read-out: Urokinase-type plasminogen activator receptor (uPAR), PLAUR (gene 5329); experiment: BSK_BE3C_uPAR: BioMAP Diversity Plus: BE3C Assay for Urokinase-type plasminogen activator receptor (uPAR) Biomarker Activity (AID 2283039); conditions: primary human bronchial epithelial cells; actives raise or lower the signal
The source made the active and inactive calls. Rule for the calls: active = hit-call score of the fitted dose curve at least 0.9, where 1 is the maximum; inactive = score below 0.9.
Labels: yes for active, no for inactive

INSERT INTO results (compound, label_class) VALUES
  ('Cc1ccc([N+](=O)[O-])cc1', 'no'),
  ('CC(C)(C)C(O)(CCc1ccc(Cl)cc1)Cn1cncn1 (configuration not stated)', 'no'),
  ('ClC1=C(Cl)[C@]2(Cl)[C@H]3[C@H]([C@@H]4C=C[C@H]3C4)[C@@]1(Cl)C2(Cl)Cl', 'no'),
  ('Nc1ccc([N+](=O)[O-])cc1', 'no'),
  ('Nc1ccc(Oc2ccc(N)cc2)cc1', 'no'),
  ('c1ccc(C2CO2)cc1 (configuration not stated)', 'no'),
  ('Brc1ccc(Oc2ccccc2)cc1', 'no'),
  ('COC(=O)Nc1nc2ccccc2[nH]1', 'no'),
  ('CCCCC(CC)COC(=O)c1ccc(C(=O)OCC(CC)CCCC)c(C(=O)OCC(CC)CCCC)c1 (configuration not stated)', 'no'),
  ('Nc1cc(Cl)cc(C(=O)O)c1Cl', 'no'),
  ('Cc1ccc(N)c(N)c1', 'no'),
  ('ClCCOCCCl', 'no'),
  ('CC(C)(C)OOC(=O)c1ccccc1', 'no'),
  ('CC(C)N(Cc1ccccc1)C(=O)C(C)(C)C', 'no'),
  ('N#CC(Br)(Br)C(N)=O', 'no'),
  ('Clc1ccc(C(c2ccc(Cl)cc2)C(Cl)(Cl)Cl)cc1', 'no'),
  ('CN(C)c1ccccc1', 'no'),
  ('C[C@]12C=CC3=C4CCC(=O)C=C4CC[C@H]3[C@@H]1CC[C@@H]2O', 'no'),
  ('O=[N+]([O-])C(Br)(CO)CO', 'no'),
  ('Cc1cc(N=Nc2ccccc2C)ccc1N', 'no'),
  ('O=[N+]([O-])c1ccc(Oc2ccc(Cl)cc2Cl)cc1', 'no'),
  ('CCCCCCCCn1sccc1=O', 'yes'),
  ('Cc1ccc(N=C=O)cc1N=C=O', 'no'),
  ('CN(C)C(=O)Nc1ccc(Cl)cc1', 'no'),
  ('O=C(N[C@H](c1ccccc1)[C@@H]1CN2CCC1CC2)c1c(Cl)ccc(C(F)(F)F)c1Cl', 'yes'),
  ('CCCCCCCCCCCCCN1CC(C)OC(C)C1 (configuration not stated)', 'no'),
  ('CC(O)CCO (configuration not stated)', 'no'),
  ('O=P(OCCCl)(OCCCl)OCCCl', 'no'),
  ('CCOC(=O)[C@]1(c2ccccc2)Oc2ccccc2[C@@H]1N', 'no'),
  ('CC(C)COC(=O)c1ccccc1C(=O)OCC(C)C', 'no'),
  ('c1ccc2c(c1)oc1ccccc12', 'no'),
  ('Oc1ccccc1Cl', 'no'),
  ('CO[C@@H]1[C@H](OC(=O)NC(=O)CCl)CC[C@]2(CO2)[C@H]1[C@@]1(C)O[C@@H]1CC=C(C)C', 'yes'),
  ('CS(=O)(=O)NC(=O)c1cc(Oc2ccc(C(F)(F)F)cc2Cl)ccc1[N+](=O)[O-]', 'no'),
  ('Oc1ccc2ccc3cccc4ccc1c2c34', 'yes'),
  ('c1ccc2c(c1)-c1cccc3cccc-2c13', 'no'),
  ('CCCCOC(=O)c1ccccc1C(=O)OCc1ccccc1', 'no'),
  ('ClC1=C(Cl)C2(Cl)C3C(Cl)C=CC3C1(Cl)C2(Cl)Cl (configuration not stated)', 'no'),
  ('O=Cc1ccco1', 'no'),
  ('O=C(Nc1ccccc1)c1ccccc1I', 'no'),
  ('O=C(Oc1ccc(Br)cc1)N1CCN2CCC1CC2', 'no'),
  ('OCCCl', 'no'),
  ('OCCOCCO', 'no'),
  ('O=C(O)C1C2CCC(O2)C1C(=O)O (configuration not stated)', 'no'),
  ('C[N+](C)(C)CC1CO1 (configuration not stated)', 'no'),
  ('Cc1ccc(N)cc1', 'no'),
  ('CN(C)[C@@H]1C(=O)C(C(N)=O)=C(O)[C@@]2(O)C(=O)C3=C(O)c4c(O)cccc4[C@@](C)(O)[C@H]3C[C@@H]12', 'no');

----------
read-out: Insulin Like Growth Factor 1 (IGF1), IGF1 (gene 3479); assay: LTEA_HepaRG_IGF1: Life Technologies and Expression Analysis (LTEA) Assay for Insulin Like Growth Factor 1 (IGF1) using HepaRG (AID 2283506); conditions: mRNA level, 48 h; actives raise or lower the signal
Active and inactive are the calls of the source. The calls were made as follows: active = hit-call score of the fitted dose curve at least 0.9, where 1 is the maximum; inactive = score below 0.9.
Labels: active, inactive

INSERT INTO measurements (molecule, label_class) VALUES
  ('Oc1ccc2ccc3cccc4ccc1c2c34', 'inactive'),
  ('Brc1ccc(Oc2ccccc2)cc1', 'inactive'),
  ('Nc1ccc([N+](=O)[O-])cc1', 'inactive'),
  ('CCCCCCCCOC(=O)c1ccc(C(=O)OCCCCCCCC)c(C(=O)OCCCCCCCC)c1', 'inactive'),
  ('[O-][Cl+]O', 'inactive'),
  ('Clc1ccc(C(c2ccc(Cl)cc2)C(Cl)Cl)cc1', 'inactive'),
  ('N#CC(Br)Br', 'inactive'),
  ('CS(=O)(=O)NC(=O)c1cc(Oc2ccc(C(F)(F)F)cc2Cl)ccc1[N+](=O)[O-]', 'inactive'),
  ('Clc1ccc(C(c2ccc(Cl)cc2)C(Cl)(Cl)Cl)cc1', 'active'),
  ('CC(C)(C)C(O)(CCc1ccc(Cl)cc1)Cn1cncn1 (configuration not stated)', 'active'),
  ('C[C@]12C=CC3=C4CCC(=O)C=C4CC[C@H]3[C@@H]1CC[C@@H]2O', 'active'),
  ('ClC1=C(Cl)C2(Cl)C3C(Cl)C=CC3C1(Cl)C2(Cl)Cl (configuration not stated)', 'active');

----------
assay: CCTE_Shafer_MEA_dev_bursting_electrodes_number: CCTE's Neural Network Formation Assay for Number of Bursting Electrodes, Shafer Lab (AID 2284043)
Results filed as inconclusive are left out. The source made the active and inactive calls. The calls were made as follows: active = hit-call score of the fitted dose curve at least 0.9, where 1 is the maximum; inconclusive = response in the unintended direction; inactive = score below 0.9.
Labels: 1 = active, -1 = inactive

INSERT INTO measurements (molecule, label_class) VALUES
  ('ClC1=C(Cl)[C@]2(Cl)[C@H]3[C@H]([C@@H]4C=C[C@H]3C4)[C@@]1(Cl)C2(Cl)Cl', 1),
  ('OCCOCCO', -1),
  ('CCCCOC(=O)c1ccccc1C(=O)OCc1ccccc1', 1),
  ('CC(C)COC(=O)c1ccccc1C(=O)OCC(C)C', 1),
  ('CC(C)(O)c1cnn2c(-c3ccc(F)c(-c4c(F)cccc4C#N)c3)cnc2n1', 1),
  ('CC(C)(C)C(O)(CCc1ccc(Cl)cc1)Cn1cncn1 (stereo not given)', 1),
  ('O=P(OCCCl)(OCCCl)OCCCl', -1),
  ('CN(C)[C@@H]1C(=O)C(C(N)=O)=C(O)[C@@]2(O)C(=O)C3=C(O)c4c(O)cccc4[C@@](C)(O)[C@H]3C[C@@H]12', -1),
  ('Clc1ccc(C(c2ccc(Cl)cc2)C(Cl)Cl)cc1', 1),
  ('[Cl-].[Cl-].[Hg+2]', 1);
